Assay: reduced growth of AddAB-expressing E. coli cells – absorbance, AddAB inhibitor project, primary screen (AID 435030);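 note: 0% = vehicle wells of infected cells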
Details: E. coli expressing H. pylori AddAB, at 11.9 µM, stronger effect = higher value
Out of some 330,000 compounds screened, about 940 (0.28%) were called active. Shown is part of a subset that was picked to be rich in actives.
Would you kindly list inhibition for each of these molecules?
Just the number in %, nothing appended.

stdin: May I ask what inhibition has been recorded for COc1ccc(N2CCN(S(=O)(=O)CCNC(=O)C34CC5CC(CC(C5)C3)C4)CC2)cc1 ?
stdout: 3.21

stdin: Now try COc1ccc(C(=O)c2oc3ccc(Br)cc3c2NC(C)=O)cc1 .
stdout: 100

stdin: Try the molecule O=C(C/C(=N\NC(=O)c1ccccc1Br)C(F)(F)F)c1cccs1
stdout: 0.69

stdin: What do you have for CC(C)(C)CC(=O)Nc1nnc(SCC(=O)NCc2cccs2)s1 ?
stdout: 1.97

stdin: Then Cc1noc(NS(=O)(=O)c2ccc(NC(=O)C34CCC(CC3)C4)cc2)c1C ?
stdout: 1.62

###

Assay: reduced growth of AddAB-expressing E. coli cells – absorbance, AddAB inhibitor project, primary screen (AID 435030);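 note: 0% = vehicle wells of infected cells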
Settings: E. coli expressing H. pylori AddAB, at 11.9 µM
Screen size: about 330,000 compounds; about 940 (0.28%) were called active. Rule as the data show it: active = inhibition above about 12%; inactive = the rest. Many of the other results were omitted from the sample, so actives are more common in it than they were.
Hi! Could you answer with just one of these? active, inactive

stdin: Assay result, entry O=C(Cc1c(F)cccc1Cl)Nc1ncc([N+](=O)[O-])s1 — outcome?
stdout: inactive

stdin: And then Cc1nnc(SCC2=C(C(=O)O)N3C(=O)C(NC(=O)Cn4nc(C)c(Cl)c4C)C3SC2)s1 (stereo not given) , what is it?
stdout: inactive

stdin: Same thing, different compound: COc1cccc(NC(=O)C(Sc2nc3ccccc3c(=O)n2CC(C)C)c2ccccc2)c1 (stereo not given)
stdout: inactive

stdin: What about this compound? C=CC1=C(C(=O)O)N2C(=O)[C@@H](NC(=O)/C(=N\OCC(=O)O)c3csc(N)n3)[C@H]2SC1
stdout: active

stdin: Entry to check: Cc1cc(C)n(-c2nnc(N3CCN(c4ccccc4)CC3)nn2)n1
stdout: inactive

###

Assay: reduced growth of AddAB-expressing E. coli cells – absorbance, AddAB inhibitor project, primary screen (AID 435030);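 note: 0% = vehicle wells of infected cells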
Details: E. coli expressing H. pylori AddAB, at 11.9 µM
Hit rate of the full screen: of about 330,000 compounds, about 940 (0.28%) were called active. No stated cut-off is given here; in the data, active means inhibition above about 12%; inactive means the rest. The sample holds actives, similar compounds and a random draw of the others, so the mix is not that of the screen.
Permitted responses: active, inactive

stdin: Given COc1ccc(C(=O)c2c(C)c(CCC#N)n3ccccc23)c(OC)c1 , state the outcome it received in this test.
stdout: inactive

stdin: Can you check CC[C@H]1OC(=O)[C@H](C)[C@@H](O[C@H]2C[C@@](C)(OC)[C@@H](O)[C@H](C)O2)[C@H](C)[C@@H](O[C@@H]2O[C@H](C)C[C@H](N(C)C)[C@H]2O)[C@](C)(O)C[C@@H](C)[C@@H]2N[C@@H](COCCOC)O[C@H]([C@H]2C)[C@]1(C)O next?
stdout: active

stdin: Entry to check: O=C(Nc1ccc2c(c1)CCC2)c1ccc(Br)s1
stdout: inactive

stdin: Follow-up item: O=C(C1=C(O)C(=O)N(CCOCCO)C1c1ccccn1)c1cccs1 (centres undefined)
stdout: inactive

###

Experiment: reduced growth of AddAB-expressing E. coli cells – absorbance, AddAB inhibitor project, primary screen (AID 435030);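 note: 0% = vehicle wells of infected cells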
Details: E. coli expressing H. pylori AddAB, at 11.9 µM
Among all 330,000 compounds or so, about 940 (0.28%) were called active. Rule as the data show it: active = inhibition above about 12%; inactive = the rest. The sample as a whole holds a higher share of actives than the screen did.
Please state which outcome applies, choosing from active, inactive

stdin: Returns: the outcome recorded for Oc1ccc(Br)cc1/C=N/Nc1ccccn1 in this assay.
stdout: inactive

stdin: Entry to check: Oc1cccc(/C=N/Nc2ccc(Cl)nn2)c1O
stdout: active

stdin: Same question for COc1ccc(CCN=C2SCC(=O)N2Cc2ccccc2)cc1OC please.
stdout: inactive

stdin: Lookup C=C1c2cccc(OC)c2O[C@H](C(=O)OCC)[C@@H]1CCCCCC
stdout: inactive

stdin: Also Cc1occc(=O)c1OCc1c(Cl)cccc1Cl , if possible.
stdout: inactive

stdin: Moving on to COc1ccccc1NC(=O)C1=C(C)Nc2ncnn2C1c1ccc(C)o1 (stereo not drawn)
stdout: inactive

stdin: And the next one, CC(C)(C)SCCSC1=CC(=O)CC(c2ccccc2)C1 (stereo not drawn) ?
stdout: inactive

stdin: Repeat for the following compound: COc1cc(C)c(C(C)C)cc1S(=O)(=O)n1ccnc1
stdout: inactive

###

What inhibition was measured for each of the following?
Experiment: reduced growth of AddAB-expressing E. coli cells – absorbance, AddAB inhibitor project, primary screen (AID 435030);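 note: 0% = vehicle wells of infected cells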
Settings: E. coli expressing H. pylori AddAB, at 11.9 µM, stronger effect = higher value
About 940 (0.28%) of roughly 330,000 compounds were called active. Only a selection was taken, and actives are over-represented in it overall.
Express it in %; write the number only.

stdin: Which inhibition is listed for O=C(Cn1cc(C(=O)c2cccs2)c2ccccc21)NCc1cccs1 ?
stdout: -0.41

stdin: Then what about the compound COC(=O)N/N=C/c1cn(CCCOc2ccc(C)cc2)c2ccccc12 ?
stdout: 3.22

stdin: CC1(C)c2[nH]c3ccccc3c2C[C@H]2C(=O)N(N)CC(=O)N21 ?
stdout: -0.5

stdin: Same question for O=C(CNc1ccc(F)cc1F)NC(=O)NCc1ccco1 please.
stdout: -1.79

stdin: Also need S=c1[nH]nc(-c2ccc(Cl)cc2)n1CC1CCCO1 (stereo unspecified) , thanks.
stdout: 0.6

stdin: What about this compound? O=C(Nc1ccc(Br)cn1)c1ccc([N+](=O)[O-])cc1Cl
stdout: -0.17

stdin: Now try Cc1cn(C2OC[C@@H](O)[C@@H]2CO)c(=O)[nH]c1=O (stereo partly specified) .
stdout: 0.5

stdin: Same for O=C1Nc2cc(Cl)c(Cl)cc2N(O)N1c1cc(Cl)cc(Cl)c1
stdout: -1

stdin: CCn1cc(CN2CCN(CC(C)(C)C)C(CCO)C2)c2ccccc21 (stereo unspecified) ?
stdout: -1.04

stdin: Try the compound CCOC(=O)C1=NOC(Cn2cc(C(C)=O)c(=O)[nH]c2=O)C1 (stereo unspecified)
stdout: 3.64

stdin: Record: CC(=O)N(O)CCCCCNC(=O)CCC(=O)N(O)CCCCCNC(=O)CCC(=O)N(O)CCCCCNC(=O)CCC(=O)O
stdout: 22

stdin: Can you check COC(=O)N/N=C/c1c[n+]([O-])c2ccccc2[n+]1[O-] next?
stdout: 89.8

stdin: Note, next up: CC1CCN(C(=O)Cn2cc(C(=O)c3ccco3)c3ccccc32)CC1
stdout: 0.41

stdin: How about CC(=O)/C(=N\Nc1ccc(Cl)cc1Cl)Sc1cccc2cccnc12 ?
stdout: -1.2

stdin: Then what about the compound CC1(C)CC(=O)c2cnc3nc4ccccc4n3c2C1 ?
stdout: -0.86

stdin: Now consider CCC(=C/c1sc2ccc3ccccc3c2[n+]1C)/C=C1\Sc2ccc3ccccc3c2N1C .
stdout: 9.85

stdin: Also CCc1noc(C)c1C(=O)NNC(=O)c1ccc(F)cc1 ?
stdout: -0.34

stdin: Cool, now CN1C(=O)c2ccc(C(=O)Nc3ccc(Br)cn3)cc2C1=O
stdout: -3.02

stdin: Can you handle NC(=O)NCCCC(=O)O next?
stdout: 4.03

stdin: Subsequent entry: CCOC(=O)c1ccccc1N1C(=O)C2Sc3[nH]c(=O)sc3C(/C=C/c3ccccc3)C2C1=O (stereo unspecified)
stdout: 2.63

stdin: Note, next up: CCOc1ccc(C(C)=O)cc1COC(=O)CNC(=O)c1cccs1
stdout: 3.06

stdin: Do the same for Nc1nonc1-n1nnc(C(=O)N/N=C/c2cc(Br)ccc2O)c1CSC1=NCCS1 please
stdout: 17.5

stdin: Now the compound O=C(Nc1ccc(Br)cn1)c1ccc([N+](=O)[O-])o1
stdout: 97.7

stdin: Same question for COc1ccccc1NC(=S)N1CCN(c2ccc(F)cc2)CC1 please.
stdout: -2.49

stdin: What do you have for Cc1ccc(C23CC4CC(CC(C(=O)NCC(=O)O)(C4)C2)C3)cc1 ?
stdout: 1.92

stdin: Same again, this time with COc1ccc(CNC(=O)C[C@H]2C[C@H](C(=O)N3CCOCC3)[C@@]3(C)c4[nH]c5cc(CCC(=O)N(C)C)ccc5c4CCN3C2=O)cc1OC
stdout: -1.37

stdin: Next: Cc1nnc(NC(=O)Cn2c(=O)sc3ccccc32)s1
stdout: 3.04

stdin: Now the compound Cc1cc(S(=O)(=O)c2cc3ccc(O)c(C)c3oc2=O)ccc1F
stdout: 0.08

stdin: What would you report for O=C(c1n[nH]c2c1CCC2)N1CCCC(Nc2cccc(F)c2)C1 (stereo unspecified) ?
stdout: 2.86

stdin: And what about the compound O=C(OCC1O[C@@H](OC(=O)c2cc(O)c(O)c(O)c2)[C@@H](OC(=O)c2cc(O)c(O)c(O)c2)[C@@H](OC(=O)c2cc(O)c(O)c(O)c2)[C@@H]1OC(=O)c1cc(O)c(O)c(O)c1)c1cc(O)c(O)c(O)c1 (stereo partly specified) ?
stdout: 27.8

stdin: Try this compound too: CCOC(=O)c1cnc(-n2nc(C)cc2C)nc1NNc1cc(C)nc(-c2ccccc2)n1
stdout: 1.33
